Each record here notes measured EC50.
# assayed target: Motilin Receptor (Oryctolagus cuniculus)
# Construct: strips of longitudinal smooth muscle were sliced from the segments; from tissue; host or cells: rabbit duodenum longitudinal smooth muscle strips
# Sequence (G1T803 1-400): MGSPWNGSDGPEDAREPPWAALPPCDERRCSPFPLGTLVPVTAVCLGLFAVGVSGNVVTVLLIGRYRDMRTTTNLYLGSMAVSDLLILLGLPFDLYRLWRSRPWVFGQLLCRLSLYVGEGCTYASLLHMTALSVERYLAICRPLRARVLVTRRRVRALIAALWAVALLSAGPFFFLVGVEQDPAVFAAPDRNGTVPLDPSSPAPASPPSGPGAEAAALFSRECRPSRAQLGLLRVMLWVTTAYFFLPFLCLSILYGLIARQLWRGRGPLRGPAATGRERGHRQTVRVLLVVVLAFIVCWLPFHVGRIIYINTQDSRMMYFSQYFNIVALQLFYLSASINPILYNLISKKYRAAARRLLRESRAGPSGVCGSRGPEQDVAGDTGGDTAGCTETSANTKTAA
# assay info: Tissue based assay for motilin agonist potency (rabbit duodenum contractility)
# Type: cell-based
# stated conditions: rabbit duodenum strips, contraction normalized to 1 μM carbachol; read-out: Motilin Receptor Agonist Activity (EC50)
# output: bare number, implied unit nM

Check out these entries, answers already filled in.
>>> recorded_number("CC[C@H]1OC(=O)[C@H](C)[C@@H](O[C@H]2C[C@@](C)(OC)[C@@H](O)[C@H](C)O2)[C@H](C)[C@@H](O[C@@H]2O[C@H](C)C[C@H](N(C)C3CCC3)[C@H]2O)[C@](C)(O)C[C@@H](C)[C@H](NS(C)(=O)=O)[C@H](C)[C@@H](O)[C@]1(C)O")
280
>>> recorded_number("CC[C@H]1OC(=O)[C@H](C)[C@@H](O[C@H]2C[C@@](C)(OC)[C@@H](O)[C@H](C)O2)[C@H](C)[C@@H](O[C@@H]2O[C@H](C)C[C@H](N(C)C(C)C)[C@H]2O)[C@](C)(O)C[C@@H](C)[C@H](OCCCC(=O)NC)[C@H](C)[C@@H](O)[C@]1(C)O")
84
>>> recorded_number("CC[C@H]1OC(=O)[C@H](C)[C@@H](O[C@H]2C[C@@](C)(OC)[C@@H](O)[C@H](C)O2)[C@H](C)[C@@H](O[C@@H]2O[C@H](C)C[C@H](N(C)C(C)C)[C@H]2O)[C@](C)(O)C[C@@H](C)[C@H](OCCCCCC(N)=O)[C@H](C)[C@@H](O)[C@]1(C)O")
170
>>> recorded_number("CC[C@H]1OC(=O)[C@H](C)[C@@H](O[C@H]2C[C@@](C)(OC)C[C@H](C)O2)[C@H](C)[C@@H](O[C@@H]2O[C@H](C)C[C@H](N(C)C(C)C)[C@H]2O)[C@](C)(O)C[C@@H](C)[C@H](OCC(=O)N(C)C)[C@H](C)[C@@H](O)[C@]1(C)O")
190
>>> recorded_number("CC[C@H]1OC(=O)[C@H](C)[C@@H](O[C@H]2C[C@@](C)(OC)[C@@H](O)[C@H](C)O2)[C@H](C)[C@@H](O[C@@H]2O[C@H](C)C[C@H](N(C)C(C)C)[C@H]2O)[C@](C)(O)C[C@@H](C)[C@H](OC)[C@H](C)[C@@H](O)[C@]1(C)O")
66

[Q] What does the record list as EC50 for CC[C@H]1OC(=O)[C@H](C)[C@@H](O[C@H]2C[C@@](C)(OC)[C@@H](O)[C@H](C)O2)[C@H](C)[C@@H](O[C@@H]2O[C@H](C)C[C@H](N(C)C(C)C)[C@H]2O)[C@](C)(O)C[C@@H](C)[C@H](OCC(=O)NC)[C@H](C)[C@@H](O)[C@H]1C ?
[A] 90

[Q] What does the record list as EC50 for CC[C@H]1OC(=O)[C@H](C)[C@@H](O[C@H]2C[C@@](C)(OC)[C@@H](O)[C@H](C)O2)[C@H](C)[C@@H](O[C@@H]2O[C@H](C)C[C@H](N(C)C(C)C)[C@H]2O)[C@](C)(O)C[C@@H](C)[C@H](OCC(=O)NC)[C@H](C)[C@@H](O)[C@]1(C)O ?
[A] 58
